experiment: Inhibition of HIV1 protease; parameters: species or system Human immunodeficiency virus 1
READOUT: Ki (nM)
// units = nM; emit number, no label

Worked examples follow.
{"STRUCTURE_STRING": "Nc1cccc(CN2C(=O)N(Cc3cccc(N)c3)[C@H](Cc3ccccc3)[C@H](O)[C@@H](O)[C@H]2Cc2ccccc2)c1", "REPORTED_MEASUREMENT": 0.41}
{"STRUCTURE_STRING": "CCC[C@@]1(CCc2ccccc2)CC(O)=C([C@H](CC)c2cccc(NS(=O)(=O)c3ccc(C(F)(F)F)cn3)c2)C(=O)O1", "REPORTED_MEASUREMENT": 0.008}

Recorded Ki for Cc1c(O)cccc1C(=O)N[C@@H](CSc1ccccc1)[C@H](O)CN1C[C@H]2CCCC[C@H]2C[C@H]1C(=O)NC(C)(C)C , please?
0.28
